All figures here come from the RepoRT retention time repository.

- test description: HILIC, Waters ACQUITY UPLC BEH Amide, 100 × 2.1 mm, 1.7 µm; A: water + 0.125% formic acid + 10 mM ammonium formate; B: 5% water + 95% acetonitrile + 0.125% formic acid + 10 mM ammonium formate; gradient (min/%B) 0/100 2/100 7.7/70 9.5/40 10.25/30 12.75/100 17/100
- details: stereoisomer not certain
Assign log10(LC retention time) to each entry below.
// do not treat as linear: log10 of LC retention time, unit min

COc1cc(-c2oc3cc(O)cc(O)c3c(=O)c2OC2OC(CO)C(O)C(O)C2O)cc(OC)c1O (stereo not given) [Syringetin-3-O-glucoside] : 0.64
CCCCCC(O)C=CC=O (stereo not given) [4-Hydroxynonenal] : 0.03
NC(N)=NCCCC(N)C(=O)NCC(=O)O (stereo not given) : 0.99
CCC(C)C(NC(=O)CN)C(=O)O (stereo not given) : 0.88
NC(N)=NCCC(=O)O : 0.91
COC(=O)C1=C(C)NC(C)=C(C(=O)OC2CCCN(Cc3ccccc3)C2)C1c1cccc([N+](=O)[O-])c1 (stereo not given) : 0.16
CCN1CCCC1CNC(=O)c1c(O)c(Cl)cc(Cl)c1OC (stereo not given) [Raclopride] : 0.32
C[Si](C)(C)CCC(=O)O : 0.75
CCC(C)n1ncn(-c2ccc(N3CCN(c4ccc(OCC5COC(Cn6cncn6)(c6ccc(Cl)cc6Cl)O5)cc4)CC3)cc2)c1=O (stereo not given) : -0.01

We now examine a further molecule.
(Q) If you can, please state the reported log10(LC retention time) value of CC(=O)C1(O)CCC2C3CC(C)C4=CC(=O)CCC4(C)C3CCC21C (stereo not given) .
(A) 0.00

----------
- test description: HILIC, Waters ACQUITY UPLC BEH Amide, 100 × 2.1 mm, 1.7 µm; A: water + 0.125% formic acid + 10 mM ammonium formate; B: 5% water + 95% acetonitrile + 0.125% formic acid + 10 mM ammonium formate; gradient (min/%B) 0/100 2/100 7.7/70 9.5/40 10.25/30 12.75/100 17/100
- details: stereoisomer not certain
assay endpoint: LC retention time (min)
Answers are plain numbers, in min.

CCCCCC=CCC=CCCCCCCCC(=O)OC(CC(=O)[O-])C[N+](C)(C)C (stereo not drawn) [Linoleoylcarnitine] : 3.1
Nc1nc2c(ncn2C2OC(CO)C(O)C2O)c(=O)[nH]1 (stereo not drawn) [Guanosine] : 7.33
COc1cc2c(cc1OC)C13CCN4CC5=CCOC6CC(=O)N2C1C6C5CC43 (stereo not drawn) [Brucine] : 4.57
CN(CC(=O)O)C(=N)N [Creatine] : 8.15
C[N+](C)(C)CCOP(=O)([O-])OCC(O)CO (stereo not drawn) [Glycerophosphocholine] : 8.67
CC(=O)NC(Cc1ccccc1)C(=O)O (stereo not drawn) [N-Acetylphenylalanine] : 2.61
O=C(O)C1CC(O)CN1C(=O)C1CCCN1 (stereo not drawn) [Proline-hydroxyproline] : 8.6
Cc1ncc(CO)c(CN)c1O [Pyridoxamine] : 8.1
CC12CCC3C(CCC4=CC(=O)CCC43C)C1CCC2=O (stereo not drawn) [Androstenedione] : 1.09
NC(CS(=O)(=O)O)C(=O)O (stereo not drawn) [Cysteic acid] : 8.92

Provide each entry's LC retention time from the list below.
1. O=C(O)C1CC(O)CN1 (stereo not drawn) [Hydroxyproline]
2. CCC(C)C(N)C(=O)O (stereo not drawn) [Isoleucine]
3. CC(=O)CC(C)(C)O [4-Hydroxy-4-methyl-2-pentanone]
4. COc1cc(OC)c(C(=O)CCCN2CCCC2)c(OC)c1 [Buflomedil]
5. NC(N)=Nc1nc(CSCCC(N)=NS(N)(=O)=O)cs1 [Famotidine]
6. CS(=O)(=O)Nc1ccc(Cc2noc(-c3ccc4[nH]cc(CCN)c4c3)n2)cc1 [L-694,247]
7. COc1ccc(C(=O)O)cc1 [P-Anisic acid]

(A)
1. 8.14
2. 7.18
3. 4.88
4. 2.34
5. 5.59
6. 5.25
7. 1.3

Give me LC retention time for each of these compounds, listed below.
1. O=C(O)CCc1c[nH]c2ccccc12 [3-Indolepropionic acid]
2. CC(c1cc2ccccc2s1)N(O)C(N)=O (stereo not drawn) [Zileuton]
3. Cn1c(=O)[nH]c2ncn(C)c2c1=O [1,7-Dimethylxanthine]
4. CSCCC(NC=O)C(=O)O (stereo not drawn) [N-Formylmethionine]

(A)
[1.28, 1.23, 1.69, 3.93]

Each compound below has a recorded value; state its LC retention time.
1. Cn1c(=O)c2c(ncn2C)n(C)c1=O [Caffeine]
2. CN(CC=CC#CC(C)(C)C)Cc1cccc2ccccc12 [Terbinafine]

(A)
1: 1.21; 2: 1.33
